Assay: Cytotoxicity against human NU04 cells assessed as inhibition of cell growth measured after 72 hrs by MTT assay
Type: functional, cell-based
Conditions: Homo sapiens, 72 h; read-out: IC50
pIC50 listing for selected molecules.
pIC50 field: float, defined as -log10 of concentration (mol/L).

>  <Smiles data>
COC(=O)c1cccc(/C=C/C(=O)c2ccc(O)c(C(F)(F)F)c2)c1

>  <pIC50>
4.99

$$$$

Can you look up the measured pIC50 of N#Cc1cccc(/C=C/C(=O)c2ccc(B(O)O)cc2)c1 for me?
4.89

Can you look up the measured pIC50 of CCCCN(CCCC)S(=O)(=O)c1ccc(C(=O)/C=C/c2cccc(C#N)c2)cc1 for me?
4.81

Can you look up the measured pIC50 of COC(=O)c1cccc(/C=C/C(=O)c2ccc(CO)c(Br)c2)c1 for me?
4.76

Can you look up the measured pIC50 of O=C(/C=C/c1ccc(Br)cc1)c1cccc(O)c1 for me?
4.58

Can you look up the measured pIC50 of O=C(/C=C/c1ccc(B(O)O)cc1)c1ccccc1 for me?
4.64
